src = patent US9930890B2

settings: pH 2.7
value-kind: logp [a]

What value of logp [a] has been recorded for this entry: CC(=NO)c1cccc(C2CC(c3csc(C4CCN(C(=O)Cn5nc(C(F)(F)F)cc5C)CC4)n3)=NO2)c1 (mixture of isomers) [I-7]
2.8[a]

Query (compound): Cc1cc(C(F)(F)F)nn1CC(=O)N1CCC(c2nc(C3=NOC(c4c(F)ccc(OS(C)(=O)=O)c4F)C3)cs2)CC1 (stereo not shown) [I-79] ; field requested: logp [a]
3.02[a],

Dear colleague, I am looking for the recorded logp [a] of the following compound: C=CCOCc1ccccc1C1CC(c2csc(C3CCN(C(=O)Cn4nc(C(F)(F)F)cc4C)CC3)n2)=NO1 (stereo not shown) [I-93]
3.84[a]

What measured logp [a] goes with Cc1cc(C(F)(F)F)nn1CC(=O)N1CCC(c2nc(C3=NOC(c4ccccc4OCC#N)C3)cs2)CC1 (stereo not shown) [I-140] ?
2.97[a],

Could you share which logp [a] value was measured for N#CCOc1cc(Cl)ccc1C1CC(c2csc(C3CCN(C(=O)Cn4nc(C(F)F)cc4C(F)F)CC3)n2)=NO1 (stereo not shown) [I-71] ?
3.23[a],

State the recorded logp [a] for this entry: O=C(Oc1ccccc1C1CC(c2csc(C3CCN(C(=O)Cn4nc(C(F)F)cc4C(F)F)CC3)n2)=NO1)c1ccc(F)cc1 (stereo not shown) [I-132]
3.73[a],

So what's the measured logp [a] for this one? CCS(=O)(=O)Oc1ccc(C2CC(c3csc(C4CCN(C(=O)Cn5nc(C(F)F)cc5C(F)F)CC4)n3)=NO2)cc1 (stereo not shown) [I-105]
2.97[a],
